Conditions: pH 7.2
Decision: Solubility in water compared against 1 ppm; not below it gives yes, below it gives no.

Use the examples below as a reference point.
Molecule	Class name
Cc1sc(N(C=O)c2cc(F)nc(F)c2)nc1C(=O)NC1CCC1(C)C (stereo not shown)	yes
COC(=O)CC(=O)N(c1cc(F)nc(F)c1)c1nc(C(=O)NC2CCC2(C)C)c(C)s1 (stereo not shown)	yes
Cc1sc(Nc2cc(F)nc(F)c2)nc1C(=O)NC1CCC1(C)C (stereo not shown) [Compound E-0, reference compound]	no
Cc1sc(N(C(=O)c2ccco2)c2cc(F)nc(F)c2)nc1C(=O)NC1CCC1(C)C (stereo not shown)	no

Ask: Assess whether reported Solubility in water for COCC(=O)N(c1cc(F)nc(F)c1)c1nc(C(=O)NC2CCC2(C)C)c(C)s1 (stereo not shown) sits at 1 ppm or higher.
Result: yes

Ask: Repeat for the following molecule: CC(=O)N(c1cc(F)nc(F)c1)c1nc(C(=O)NC2CCC2(C)C)c(C)s1 (stereo not shown)
Result: yes

Cited source for all entries: patent US12696899B2
